Attribution: patent US20210115124A1

- target-or-system: T1, human VEGF (hVEGF) (human, UniProt P15692 181-395);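 further: fab variants flowed over hVEGF immobilized on a CM5 chip, rate constants from a one-to-one Langmuir fit, Kd taken as koff over kon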
- T1 construct: also called VEGF-A
- T1 sequence: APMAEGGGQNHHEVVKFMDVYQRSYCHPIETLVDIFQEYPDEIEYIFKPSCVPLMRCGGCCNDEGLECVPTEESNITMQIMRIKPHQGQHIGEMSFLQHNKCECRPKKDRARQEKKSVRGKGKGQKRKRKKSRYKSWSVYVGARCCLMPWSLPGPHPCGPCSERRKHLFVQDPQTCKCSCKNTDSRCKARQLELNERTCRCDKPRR
- test: SPR
endpoint: Kd (pM)
Entry rule: numbers only, all in pM.

[[record]]
binder = "HCLC1 (Fab, V domains shown, Fab) VH: EEQLVEEGGGLVQPGESLELSCAASGFEISDYWIHWVRQEPGEGLEWVAGITPAGGYEYYADSVEGRFTISADTSENTAYLQMNELRAEDTAVYYCARFVFFLPYAMDYWGQGELVTVSS VL: DIQMTQSPESLSASVGDEVTITCRASQDVSTAVAWYQQKPGKAPKLLIYSASFLYSGVPSRFSGSGSGTDFTLTISSLQPEDAATYYCQQGYGAPFTFGQGTKVEIK"
u = "pM"
value_measured = 442


Measured Kd of HCLC3 (Fab, V domains shown, Fab) VH: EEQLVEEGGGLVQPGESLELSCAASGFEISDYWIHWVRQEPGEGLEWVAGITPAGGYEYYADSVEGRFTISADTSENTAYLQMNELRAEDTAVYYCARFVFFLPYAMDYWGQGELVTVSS VL: DIQMTQSPESLSASVGDEVTITCRASQDVSTAVAWYQQKPGEAPKLLIYSASFLYSGVPSRFSGSGSGTDFTLTISSLQPEDAATYYCQQGYGAPFTFGQGTKVEIK : 330

Item: G6.31 LC-N94A (Fab, V domains shown, Fab) VH: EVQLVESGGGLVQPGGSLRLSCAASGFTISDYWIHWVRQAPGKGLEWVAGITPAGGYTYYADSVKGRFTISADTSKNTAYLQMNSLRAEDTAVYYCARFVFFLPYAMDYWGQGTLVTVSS VL: DIQMTQSPSSLSASVGDRVTITCRASQDVSTAVAWYQQKPGKAPKLLIYSASFLYSGVPSRFSGSGSGTDFTLTISSLQPEDFATYYCQQGYGAPFTFGQGTKVEIK | Kd: 1060

The recorded Kd for entry HCLC5 (Fab, V domains shown, Fab) VH: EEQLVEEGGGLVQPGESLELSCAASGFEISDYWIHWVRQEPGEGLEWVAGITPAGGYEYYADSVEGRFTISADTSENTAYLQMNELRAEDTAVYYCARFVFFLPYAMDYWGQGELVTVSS VL: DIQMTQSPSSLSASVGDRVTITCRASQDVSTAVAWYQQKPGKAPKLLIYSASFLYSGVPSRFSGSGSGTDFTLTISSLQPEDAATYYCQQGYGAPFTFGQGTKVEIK equals 316

Input HCLC2 (Fab, V domains shown, Fab) VH: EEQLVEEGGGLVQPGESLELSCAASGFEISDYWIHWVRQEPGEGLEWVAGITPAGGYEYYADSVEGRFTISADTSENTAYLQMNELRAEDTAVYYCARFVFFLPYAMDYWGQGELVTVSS VL: DIQMTQSPSSLSASVGDEVTITCRASQDVSTAVAWYQQKPGEAPKLLIYSASFLYSGVPSRFSGSGSGTDFTLTIESLQPEDAATYYCQQGYGAPFTFGQGTKVEIK . Output Kd: 293
